As shown below, each of these compounds has a reported LD50 value.
assay: Acute toxicity, oral LD50 mice (Table I); conditions: mouse, in vivo
measured-attribute: LD50 (mg/kg)

mol | measure-unit | measured-number
CC(C)(C)c1ccc(CCCC(CCCc2ccc(C(C)(C)C)cc2)NCCCNCCCNCCCN)cc1.Cl.Cl.Cl.Cl | mg/kg | 1550
Cc1ccc(C(C)(C)C)cc1CCCC(CCCc1cc(C(C)(C)C)ccc1C)NCCCNCCCN.Cl.Cl.Cl | mg/kg | 1650
Cc1ccc(C(C)(C)C)cc1CCCC(CCCc1cc(C(C)(C)C)ccc1C)NCCNCCNCCN.Cl.Cl.Cl.Cl | mg/kg | 2070
Cc1cc(C)c(CCC(CCc2c(C)cc(C)cc2C)NCCCNCCCN)c(C)c1.Cl.Cl.Cl | mg/kg | 1150
